Origin of measurements: PubChem BioAssay

- ASSAY_SUMMARY: viability loss with induced miR-34 in A549 – imaging, A549 dox-inducible miR-34, nuclei and caspase counts, primary screen (AID 1347080); further: test concentration not given here
- SETUP_CONDITIONS: A549 miR-34 inducible, Hoechst nuclei count, 48 h; measured here: relative caspase fold change +Dox/-Dox
Field: label. Allowed values: 1 (fold change < 1) or 0 (fold change >= 1).

- COMPOUND: "Cc1cc2c(F)c(Oc3ncnn4cc(OCC(C)O)c(C)c34)ccc2[nH]1 (stereo not given)"
  LABEL: 1
- COMPOUND: "O=C(NCCCc1ccccc1)NC1CCCCC1"
  LABEL: 1
- COMPOUND: "CO[C@@H]1[C@@H](OC(N)=O)[C@H](O)[C@H](Oc2ccc3c(O)c(NC(=O)c4ccc(O)c(CC=C(C)C)c4)c(=O)oc3c2C)OC1(C)C"
  LABEL: 0
- COMPOUND: "COC(=O)C1C(O)CC[C@H]2CN3CCc4c([nH]c5ccccc45)[C@@H]3C[C@H]12 (stereo not given in full)"
  LABEL: 1

Lookup: Hi there! Is fold change for Oc1cc(O)c2c(c1)OC(c1ccc(O)c(O)c1)C(O)C2 (stereo not given) below 1, do you know?
Found: 0

Lookup: Hi there! Is fold change for COc1c(O[C@@H]2O[C@H](CO)[C@@H](O)[C@H](O)[C@H]2O)cc2c(c1OC)-c1ccc(SC)c(=O)cc1C(NC(C)=O)CC2 (stereo not given in full) below 1, do you know?
Found: 0

Lookup: Hi there! Is fold change for CC1(C)CCC=[N+]1[O-] below 1, do you know?
Found: 1

Lookup: Hi there! Is fold change for O=S(=O)(NCCNCC=Cc1ccc(Br)cc1)c1cccc2cnccc12 below 1, do you know?
Found: 1

Lookup: Hi there! Is fold change for C=C1CC[C@H](O)C/C1=C/C=C1\CCC[C@]2(C)[C@@H]([C@H](C)CCCC(C)C)CC[C@@H]12 below 1, do you know?
Found: 0

Lookup: Hi there! Is fold change for OC1CO[C@H]2C(O)CO[C@H]12 (stereo not given in full) below 1, do you know?
Found: 1

Lookup: Hi there! Is fold change for COc1ccc(N2CCN(c3ncnc4sccc34)C(C)C2=O)cc1 (stereo not given) below 1, do you know?
Found: 0
